target: recombinant canine A3 adenosine receptors (Canis lupus familiaris); assay: Radioligand competition binding, canine A3 receptor (R-PIA), transfected HEK 293 membranes; conditions: mean ± SEM, n = 3
Sequence (Q28309 whole entry): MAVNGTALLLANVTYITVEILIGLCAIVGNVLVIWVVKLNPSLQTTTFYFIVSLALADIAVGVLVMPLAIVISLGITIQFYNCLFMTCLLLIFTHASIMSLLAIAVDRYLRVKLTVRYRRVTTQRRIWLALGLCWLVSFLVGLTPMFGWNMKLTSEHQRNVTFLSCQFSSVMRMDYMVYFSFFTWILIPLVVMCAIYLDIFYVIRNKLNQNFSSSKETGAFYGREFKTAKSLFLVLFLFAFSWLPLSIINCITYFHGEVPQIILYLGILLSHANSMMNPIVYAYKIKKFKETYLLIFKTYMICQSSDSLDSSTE
MEASURE NAME: Ki (µM)
Give the number; µM is assumed, so skip it.

CCCn1c(=O)c2[nH]c(C3CCCC3)nc2n(CCC)c1=O
1.96

Ask: Return value of Ki for input CCCn1c(=O)c2[nH]c(C34CCC(CCC(=O)O)(CC3)CC4)nc2n(CCC)c1=O , no commentary.
Result: 37.7

Ask: Provide only the value of recorded Ki for CCCn1c(=O)c2[nH]c([C@H]3C[C@@H]4C[C@H]3[C@H]3O[C@@H]43)nc2n(CCC)c1=O
Result: 19.1

###

biological target: recombinant canine A1 adenosine receptors (Canis lupus familiaris); construct: expressed in transfected cells; experiment: Radioligand competition binding, canine A1 receptor (3H-CPX), transfected HEK 293 membranes
MEASURE NAME: Ki (µM)
Answer in µM, number only, no unit symbol.

CCCn1c(=O)c2[nH]c(C34CCC(CCC(=O)O)(CC3)CC4)nc2n(CCC)c1=O
0.0289

Would you kindly look at the next entry?
Ask: Provide one value: measured Ki of CCCn1c(=O)c2[nH]c(C3CCCC3)nc2n(CCC)c1=O
Result: 0.0181

###

biological target: human A2B adenosine receptors (Homo sapiens, UniProt P29275); assay: Radioligand competitive binding, human A2b receptor; design: expressed in transfected cells; host or cells: HEK-293; conditions: HEK 293 membranes
Sequence (P29275 whole entry): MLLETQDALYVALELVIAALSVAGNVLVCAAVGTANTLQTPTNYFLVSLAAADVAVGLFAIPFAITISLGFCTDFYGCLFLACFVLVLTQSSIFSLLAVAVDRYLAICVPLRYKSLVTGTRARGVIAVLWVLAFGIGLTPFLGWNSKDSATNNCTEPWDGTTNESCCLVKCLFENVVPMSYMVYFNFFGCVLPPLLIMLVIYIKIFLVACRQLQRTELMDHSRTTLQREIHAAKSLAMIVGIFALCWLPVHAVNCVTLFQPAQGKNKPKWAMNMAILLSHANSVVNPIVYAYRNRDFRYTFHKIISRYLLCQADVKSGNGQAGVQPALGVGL
MEASURE NAME: pKi
Interpret pKi as the negative base-10 log of the concentration measured in mol/L.

Ask: Return pKi (reported value) for this compound: CCCn1c(=O)c2[nH]c(C34CCC(CCC(=O)O)(CC3)CC4)nc2n(CCC)c1=O
Result: 7.05

###

target: recombinant canine A2a adenosine receptors (Canis lupus familiaris); construct: expressed in transfected cells; test: Radioligand competition binding, canine A2a receptor (3H-ZM 241385), transfected HEK 293 membranes; settings: canine; mean ± SEM, n = 3; 3H-ZM 241385; read-out: Ki, A2a
Sequence (P11617 whole entry): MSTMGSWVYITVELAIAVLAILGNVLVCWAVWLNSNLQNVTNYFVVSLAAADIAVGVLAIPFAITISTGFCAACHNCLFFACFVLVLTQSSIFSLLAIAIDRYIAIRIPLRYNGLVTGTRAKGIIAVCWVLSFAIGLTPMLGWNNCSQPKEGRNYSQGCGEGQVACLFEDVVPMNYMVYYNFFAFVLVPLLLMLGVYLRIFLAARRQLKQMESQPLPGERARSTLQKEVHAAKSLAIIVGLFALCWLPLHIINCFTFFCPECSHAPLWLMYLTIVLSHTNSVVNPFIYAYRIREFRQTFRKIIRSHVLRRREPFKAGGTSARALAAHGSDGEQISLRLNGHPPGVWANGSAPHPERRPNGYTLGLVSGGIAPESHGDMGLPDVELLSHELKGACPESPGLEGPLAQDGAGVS
Ki reference
I only need the number, in µM, no unit after it.

CCCn1c(=O)c2[nH]c(C34CCC(CCC(=O)O)(CC3)CC4)nc2n(CCC)c1=O
4.31

Shifting focus to the compound that follows.
Ask: Read off the recorded Ki for CCCn1c(=O)c2[nH]c([C@H]3C[C@@H]4C[C@H]3[C@H]3O[C@@H]43)nc2n(CCC)c1=O
Result: 2.82

###

Biological target: recombinant canine A1 adenosine receptors (Canis lupus familiaris, UniProt P11616)
Construct: expressed in transfected cells
Sequence (P11616 whole entry): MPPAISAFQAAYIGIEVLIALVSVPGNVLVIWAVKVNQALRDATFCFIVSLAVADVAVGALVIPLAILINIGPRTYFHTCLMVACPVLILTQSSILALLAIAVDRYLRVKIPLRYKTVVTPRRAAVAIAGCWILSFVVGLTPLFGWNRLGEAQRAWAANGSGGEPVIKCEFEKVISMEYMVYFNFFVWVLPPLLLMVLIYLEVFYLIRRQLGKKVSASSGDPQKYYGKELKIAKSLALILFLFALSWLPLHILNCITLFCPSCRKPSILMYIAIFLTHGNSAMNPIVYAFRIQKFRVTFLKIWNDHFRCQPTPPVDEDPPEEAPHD
Assay: Radioligand competition binding, canine A1 receptor (3H-CPX), transfected HEK 293 membranes
Conditions: canine; mean ± SEM, n = 3; 3H-CPX; read-out: Ki, A1
Experimental: Membranes (40-70 μg membrane protein), radioligands, and varying concentrations of competing ligands were incubated in triplicate in 0.1 ml buffer HE plus 2 units/mL adenosine deaminase for 2.5 hours at 21° C. […] Nonspecific binding was measured in the presence of 10 μM 5′N ethylcarboxamidoadenosine (NECA, from RBI-Sigma, Natick, Mass.) for A1 and A2b receptors, or 10 μM xanthine amino congener (XAC, from RBI-Sigma, Natick, Mass.) for A2a receptors. […]
MEASURE NAME: Ki (nM)
Report as a plain number; the unit nM is understood.

Ask: // Input: CCCn1c(=O)c2[nH]c([C@H]3C[C@@H]4C[C@H]3[C@H]3O[C@@H]43)nc2n(CCC)c1=O [BG 9719] . Output its Ki only.
Result: 35.8
